Tested on: murine macrophage-like J774.A1 cells
experimental protocol: Cytotoxicity to J774.A1 macrophages (Alamar Blue)
measurement setup: concentrations up to 500 μM (compounds 7 and 13 up to 250 μM)
attribute measured: cytotoxic effects in J774 macrophages (in words)

COC1CC(OC2CCC3(C)C(CCC4(O)C3CC(OC(=O)C=Cc3ccccc3)C3(C)C(C(C)O)CCC43O)C2)OC(C)C1OC1CC(OC)C(OC2OC(C)C(O)C(OC)C2O)C(C)O1 (centres unmarked) [Compound 15]
most cytotoxic
COC1CC(OC2CCC3(C)C(=CCC4(O)C3CC(OC(=O)C=Cc3ccccc3)C3(C)C(C(C)O)CCC43O)C2)OC(C)C1OC1CC(OC)C(OC2OC(C)C(O)C(OC)C2O)C(C)O1 (centres unmarked) [Compound 11]
most cytotoxic
